tested.system: UniProt Q9P2K8
test.protocol: TR-FRET biochemical assay for inhibition of GCN2 (Example 106, for Example 1-4BB)
measurement.setup: Table 9
recorded.endpoint: IC50

compound_structure=Cc1ncccc1S(=O)(=O)Nc1ncc(F)c(-c2ccc3c(-c4ncc[nH]4)n[nH]c3c2F)c1F readout_value="> 10 µM"
compound_structure=COc1ncc(Cl)cc1S(=O)(=O)Nc1ccc(F)c(-c2ccc3c(C(=O)NC[C@@H]4CCCN4C)n[nH]c3c2F)c1F readout_value="< 0.5 µM"
compound_structure=Cc1c(CO)cc(F)cc1S(=O)(=O)Nc1ccc(F)c(-c2ccc3c(C(=O)NCCCO)n[nH]c3c2F)c1F readout_value="< 0.5 µM"
compound_structure=COc1ncc(F)cc1S(=O)(=O)Nc1ccc(F)c(-c2ccc3c(-c4nc(C(N)=O)c[nH]4)n[nH]c3c2F)c1F readout_value="< 0.5 µM"
compound_structure=COc1ncc(F)cc1S(=O)(=O)Nc1cccc(-c2ccc3c(C(=O)NC[C@@H](O)CO)n[nH]c3c2F)c1F readout_value="0.5 to 2.5 µM"
compound_structure=CNC(=O)c1n[nH]c2c(F)c(-c3c(F)ccc(NS(=O)(=O)c4cc(F)cnc4OC)c3F)ccc12 readout_value="< 0.5 µM"
compound_structure=COc1ncc(Cl)cc1S(=O)(=O)Nc1ccc(F)c(-c2ccc3c(C(=O)Nc4cn[nH]n4)n[nH]c3c2F)c1F readout_value="0.5 to 2.5 µM"

====

tested.system: UniProt:Q9P2K8
test.protocol: TR-FRET biochemical assay for inhibition of GCN2 (Example 106, for Example 1-4BB)
measurement.setup: Table 9
IC50 for assorted molecules
recorded.endpoint: IC50

molecule="COc1ncncc1S(=O)(=O)Nc1ccc(F)c(-c2ccc3c(C(=O)NCCCN(C)C)n[nH]c3c2F)c1F [Example 3CM]" tested_system=UniProt:Q9P2K8 readout_value="> 10000 nM"
molecule="Cc1ccc(S(=O)(=O)Nc2ccc(F)c(-c3ccc4c(C(=O)Nc5cn[nH]c5)n[nH]c4c3F)c2F)c(C)n1 [Example 3DI]" tested_system=UniProt:Q9P2K8 readout_value="< 500 nM"
molecule="COc1ncc(C#N)cc1S(=O)(=O)Nc1ccc(F)c(-c2ccc3c(C(=O)NCCCN(C)C)n[nH]c3c2F)c1F [Example 3BU]" tested_system=UniProt:Q9P2K8 readout_value="500 to 2500 nM"
molecule="Cc1ncc(F)cc1S(=O)(=O)Nc1ccc(F)c(-c2ccc3c(-c4cccc(=O)[nH]4)n[nH]c3c2F)c1F [Example 15]" tested_system=UniProt:Q9P2K8 readout_value="< 500 nM"
molecule="COc1ncc(F)cc1S(=O)(=O)Nc1ccc(F)c(-c2ccc3c(C(=O)NCCCN(C)C)n[nH]c3c2F)c1F [Example 3U]" tested_system=UniProt:Q9P2K8 readout_value="< 500 nM"
molecule="COc1ncccc1S(=O)(=O)Nc1cccc(-c2ccc3c(-c4ncc[nH]4)n[nH]c3c2F)c1F [Example 3W]" tested_system=UniProt:Q9P2K8 readout_value="< 500 nM"
molecule="COc1ncc(C#N)cc1S(=O)(=O)Nc1cc(F)cc(-c2ccc3c(-c4ncc[nH]4)n[nH]c3c2F)c1F [Example 3BV]" tested_system=UniProt:Q9P2K8 readout_value="< 500 nM"

====

tested.system: GCN2 (Homo sapiens)
Sequence (Q9P2K8 whole entry): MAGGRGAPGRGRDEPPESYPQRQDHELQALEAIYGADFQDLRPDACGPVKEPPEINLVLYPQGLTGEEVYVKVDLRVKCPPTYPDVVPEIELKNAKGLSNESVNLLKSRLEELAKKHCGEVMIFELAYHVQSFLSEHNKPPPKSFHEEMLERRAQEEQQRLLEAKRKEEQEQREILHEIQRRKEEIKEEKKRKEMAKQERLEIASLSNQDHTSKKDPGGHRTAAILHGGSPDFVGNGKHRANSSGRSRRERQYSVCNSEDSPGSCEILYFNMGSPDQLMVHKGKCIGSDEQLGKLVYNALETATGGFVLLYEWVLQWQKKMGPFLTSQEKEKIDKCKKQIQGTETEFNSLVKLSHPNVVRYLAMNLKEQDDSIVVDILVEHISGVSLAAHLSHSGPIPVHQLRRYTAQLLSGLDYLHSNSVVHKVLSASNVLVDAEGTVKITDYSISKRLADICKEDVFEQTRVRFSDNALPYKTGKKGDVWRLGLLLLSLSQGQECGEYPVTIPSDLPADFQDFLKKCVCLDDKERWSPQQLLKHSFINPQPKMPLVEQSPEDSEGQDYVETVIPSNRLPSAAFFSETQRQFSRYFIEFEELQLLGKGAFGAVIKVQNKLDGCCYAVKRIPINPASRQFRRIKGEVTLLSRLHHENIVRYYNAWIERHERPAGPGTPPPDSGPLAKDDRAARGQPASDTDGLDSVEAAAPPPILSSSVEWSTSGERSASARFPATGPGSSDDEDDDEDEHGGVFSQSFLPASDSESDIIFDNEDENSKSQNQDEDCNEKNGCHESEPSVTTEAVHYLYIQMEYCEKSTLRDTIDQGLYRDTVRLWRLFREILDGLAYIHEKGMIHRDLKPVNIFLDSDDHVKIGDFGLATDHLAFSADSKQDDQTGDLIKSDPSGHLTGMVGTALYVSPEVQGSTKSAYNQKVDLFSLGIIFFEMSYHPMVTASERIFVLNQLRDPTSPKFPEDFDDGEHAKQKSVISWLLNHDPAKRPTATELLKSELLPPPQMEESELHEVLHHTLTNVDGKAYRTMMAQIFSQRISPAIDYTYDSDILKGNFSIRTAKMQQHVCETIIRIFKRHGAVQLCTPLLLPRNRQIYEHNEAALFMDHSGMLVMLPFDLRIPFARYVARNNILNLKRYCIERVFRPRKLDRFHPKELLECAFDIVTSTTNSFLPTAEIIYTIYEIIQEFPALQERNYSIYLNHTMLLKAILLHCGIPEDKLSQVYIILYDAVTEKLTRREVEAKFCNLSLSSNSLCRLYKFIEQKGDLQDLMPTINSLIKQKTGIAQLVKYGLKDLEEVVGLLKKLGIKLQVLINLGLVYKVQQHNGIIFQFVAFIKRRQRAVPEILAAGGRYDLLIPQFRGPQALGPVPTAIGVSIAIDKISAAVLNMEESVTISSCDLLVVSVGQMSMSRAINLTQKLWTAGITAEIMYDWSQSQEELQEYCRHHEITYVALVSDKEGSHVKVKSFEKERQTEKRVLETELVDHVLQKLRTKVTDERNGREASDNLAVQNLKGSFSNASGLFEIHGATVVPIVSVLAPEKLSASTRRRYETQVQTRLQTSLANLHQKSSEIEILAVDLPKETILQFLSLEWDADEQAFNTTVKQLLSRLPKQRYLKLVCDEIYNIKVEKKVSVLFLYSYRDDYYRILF
test.protocol: TR-FRET biochemical assay for inhibition of GCN2 (Example 106, for Example 1-4BB)
measurement.setup: Table 9
Listed here: items and their measured IC50.
recorded.endpoint: IC50

compound_structure=COc1ncc(C#N)cc1S(=O)(=O)Nc1ccc(F)c(-c2ccc3c(C(=O)NCCCO)n[nH]c3c2F)c1F recorded_endpoint=IC50 readout_value="500 to 2500 nM"
compound_structure=COc1ncc(F)cc1S(=O)(=O)Nc1cccc(-c2ccc3c(C(=O)NCC[C@H](O)CO)n[nH]c3c2F)c1F recorded_endpoint=IC50 readout_value="< 500 nM"
compound_structure=CNC(=O)c1n[nH]c2c(F)c(-c3c(F)cnc(NS(=O)(=O)c4cc(F)cnc4C)c3F)ccc12 recorded_endpoint=IC50 readout_value="> 10000 nM"
compound_structure=COc1ncc(F)cc1S(=O)(=O)Nc1ccc(F)c(-c2ccc3c(C(=O)NCCCO)n[nH]c3c2F)c1F recorded_endpoint=IC50 readout_value="< 500 nM"
compound_structure=COc1ncc(F)cc1S(=O)(=O)Nc1ccc(F)c(-c2ccc3c(C(=O)NCC(N)=O)n[nH]c3c2F)c1F recorded_endpoint=IC50 readout_value="500 to 2500 nM"
compound_structure=COc1ncc(F)cc1S(=O)(=O)Nc1ccc(F)c(-c2ccc3c(C(N)=O)n[nH]c3c2F)c1F recorded_endpoint=IC50 readout_value="< 500 nM"
compound_structure=COc1nc(C)c(Cl)cc1S(=O)(=O)Nc1ccc(F)c(-c2ccc3c(C(=O)NCCCO)n[nH]c3c2F)c1F recorded_endpoint=IC50 readout_value="< 500 nM"
